# Test system: H22
# assay overview: Antiproliferative activity against mouse H22 cells after 48 hrs by MTT assay
# Format: functional, cell-based
# condition: H22, 48 h
Peptide text beside a SMILES is read from it. * marks the point of attachment. OBn = c1ccc(CO*)cc1
Rule: IC50 below 20 µM gives condition met, anything at or above gives condition not met.

| compound | label class |
| --- | --- |
| N[C@@H](Cc1c[nH]c2ccccc12)C(=O)N[C@@H](Cc1c[nH]c2ccccc12)C(=O)N1CCC[C@H]1C(=O)OCc1ccccc1 (H-Trp-Trp-Pro-OBn) | condition met |
| N[C@@H](Cc1c[nH]c2ccccc12)C(=O)N[C@@H](Cc1c[nH]c2ccccc12)C(=O)N[C@@H](Cc1ccccc1)C(=O)OCc1ccccc1 (H-Trp-Trp-Phe-OBn) | condition met |
| NC(=O)CC[C@H](NC(=O)[C@H](Cc1c[nH]c2ccccc12)NC(=O)[C@@H](N)Cc1c[nH]c2ccccc12)C(=O)OCc1ccccc1 (H-Trp-Trp-Gln-OBn) | condition met |
| CC(C)C[C@H](NC(=O)[C@H](Cc1c[nH]c2ccccc12)NC(=O)[C@@H](N)Cc1c[nH]c2ccccc12)C(=O)OCc1ccccc1 (H-Trp-Trp-Leu-OBn) | condition not met |
| N[C@@H](Cc1c[nH]c2ccccc12)C(=O)N[C@@H](Cc1c[nH]c2ccccc12)C(=O)N[C@@H](Cc1ccc(O)cc1)C(=O)OCc1ccccc1 (H-Trp-Trp-Tyr-OBn) | condition not met |

Then there is this compound:
Report whether reported IC50 is lower than 20 µM (strictly) for Nc1ccn([C@@H]2O[C@H](CO)[C@@H](O)[C@@H]2O)c(=O)n1
condition not met

* * *

# Tested on: Mus musculus
# assay overview: Acute toxicity in ICR mouse assessed as jumping at 500 mg/kg, ip administered qd for 7 days
# Assay type: organism-based
# Set-up: dose 500 mg/kg, route intraperitoneal
# condition: in vivo, 168 h
Peptide text beside a SMILES is read from it. * marks the point of attachment. OBn = c1ccc(CO*)cc1
recorded metric: Activity

| compound | experimental system | result |
| --- | --- | --- |
| N[C@@H](Cc1c[nH]c2ccccc12)C(=O)N[C@@H](Cc1c[nH]c2ccccc12)C(=O)N[C@@H](Cc1ccccc1)C(=O)OCc1ccccc1 (H-Trp-Trp-Phe-OBn) | Mus musculus | Non-toxic |
| C[C@@H](O)[C@H](NC(=O)[C@H](Cc1c[nH]c2ccccc12)NC(=O)[C@@H](N)Cc1c[nH]c2ccccc12)C(=O)OCc1ccccc1 (H-Trp-Trp-Thr-OBn) | Mus musculus | Non-toxic |
| N[C@@H](Cc1c[nH]c2ccccc12)C(=O)N[C@@H](Cc1c[nH]c2ccccc12)C(=O)N[C@@H](Cc1ccc(O)cc1)C(=O)OCc1ccccc1 (H-Trp-Trp-Tyr-OBn) | Mus musculus | Non-toxic |

* * *

# Test system: Mus musculus
# assay overview: Acute toxicity in ICR mouse assessed as twitch at 500 mg/kg, ip administered qd for 7 days
# Format: organism-based
# Set-up: dose 500 mg/kg, route intraperitoneal
# condition: in vivo, 168 h
Peptide text beside a SMILES is read from it. * marks the point of attachment. OBn = c1ccc(CO*)cc1
recorded metric: Activity

Consider the following illustrative entries.
| molecule | Activity |
| --- | --- |
| C[C@@H](O)[C@H](NC(=O)[C@H](Cc1c[nH]c2ccccc12)NC(=O)[C@@H](N)Cc1c[nH]c2ccccc12)C(=O)OCc1ccccc1 (H-Trp-Trp-Thr-OBn) | Non-toxic |
| N[C@@H](Cc1c[nH]c2ccccc12)C(=O)N[C@@H](Cc1c[nH]c2ccccc12)C(=O)N[C@@H](Cc1ccc(O)cc1)C(=O)OCc1ccccc1 (H-Trp-Trp-Tyr-OBn) | Non-toxic |
| N[C@@H](Cc1c[nH]c2ccccc12)C(=O)N[C@@H](Cc1c[nH]c2ccccc12)C(=O)N[C@@H](Cc1ccccc1)C(=O)OCc1ccccc1 (H-Trp-Trp-Phe-OBn) | Non-toxic |
| CC(C)[C@H](NC(=O)[C@H](Cc1c[nH]c2ccccc12)NC(=O)[C@@H](N)Cc1c[nH]c2ccccc12)C(=O)OCc1ccccc1 (H-Trp-Trp-Val-OBn) | Non-toxic |
| CSCC[C@H](NC(=O)[C@H](Cc1c[nH]c2ccccc12)NC(=O)[C@@H](N)Cc1c[nH]c2ccccc12)C(=O)OCc1ccccc1 (H-Trp-Trp-Met-OBn) | Non-toxic |

For the next question, use this molecule.
Report value: Activity, system: Mus musculus, molecule: N[C@@H](Cc1c[nH]c2ccccc12)C(=O)N[C@@H](Cc1c[nH]c2ccccc12)C(=O)N[C@@H](CO)C(=O)OCc1ccccc1 (H-Trp-Trp-Ser-OBn)
Non-toxic

* * *

# System: Mus musculus
# assay overview: Acute toxicity in ICR mouse assessed as jumping at 500 mg/kg, ip administered qd for 7 days
# Assay type: organism-based
# Set-up: dose 500 mg/kg, route intraperitoneal
# condition: in vivo, 168 h
Peptide text beside a SMILES is read from it. * marks the point of attachment. OBn = c1ccc(CO*)cc1
recorded metric: Activity

| compound | experimental system | result |
| --- | --- | --- |
| NC(=O)C[C@H](NC(=O)[C@H](Cc1c[nH]c2ccccc12)NC(=O)[C@@H](N)Cc1c[nH]c2ccccc12)C(=O)OCc1ccccc1 (H-Trp-Trp-Asn-OBn) | Mus musculus | Non-toxic |
| N[C@@H](Cc1c[nH]c2ccccc12)C(=O)N[C@@H](Cc1c[nH]c2ccccc12)C(=O)N1CCC[C@H]1C(=O)OCc1ccccc1 (H-Trp-Trp-Pro-OBn) | Mus musculus | Non-toxic |
| CC[C@H](C)[C@H](NC(=O)[C@H](Cc1c[nH]c2ccccc12)NC(=O)[C@@H](N)Cc1c[nH]c2ccccc12)C(=O)OCc1ccccc1 (H-Trp-Trp-Ile-OBn) | Mus musculus | Non-toxic |

* * *

# Test system: CCRF S-180
# assay overview: Antiproliferative activity against mouse S180 cells after 48 hrs by MTT assay
# Type: functional, cell-based
# condition: CCRF S-180, 48 h
Peptide text beside a SMILES is read from it. * marks the point of attachment. OBn = c1ccc(CO*)cc1
Rule: IC50 below 20 µM gives Yes, anything at or above gives No.

| compound | label class |
| --- | --- |
| CSCC[C@H](NC(=O)[C@H](Cc1c[nH]c2ccccc12)NC(=O)[C@@H](N)Cc1c[nH]c2ccccc12)C(=O)OCc1ccccc1 (H-Trp-Trp-Met-OBn) | No |
| NC(=O)CC[C@H](NC(=O)[C@H](Cc1c[nH]c2ccccc12)NC(=O)[C@@H](N)Cc1c[nH]c2ccccc12)C(=O)OCc1ccccc1 (H-Trp-Trp-Gln-OBn) | Yes |
| N[C@@H](Cc1c[nH]c2ccccc12)C(=O)N[C@@H](Cc1c[nH]c2ccccc12)C(=O)N[C@@H](Cc1cnc[nH]1)C(=O)OCc1ccccc1 (H-Trp-Trp-His-OBn) | No |
| N[C@@H](Cc1c[nH]c2ccccc12)C(=O)N[C@@H](Cc1c[nH]c2ccccc12)C(=O)N[C@@H](CCC(=O)O)C(=O)OCc1ccccc1 (H-Trp-Trp-Glu-OBn) | Yes |

Then there is this compound:
Report whether reported IC50 is lower than 20 µM (strictly) for Nc1ccn([C@@H]2O[C@H](CO)[C@@H](O)[C@@H]2O)c(=O)n1 [CYTARABINE]
No

* * *

# Test system: Mus musculus
# assay overview: Toxicity in ICR mouse xenografted with mouse S180 cells assessed as effect on kidney weight at 8.9 umol/kg
# Type: organism-based, CCRF S-180
# condition: in vivo
Peptide text beside a SMILES is read from it. * marks the point of attachment. OBn = c1ccc(CO*)cc1
Assignment: determine reported Activity for the given compounds.
One number for each entry, in g.

Consider the following illustrative entries.
| compound | quantitative readout |
| --- | --- |
| N[C@@H](Cc1c[nH]c2ccccc12)C(=O)N[C@@H](Cc1c[nH]c2ccccc12)C(=O)N[C@@H](CCC(=O)O)C(=O)OCc1ccccc1 (H-Trp-Trp-Glu-OBn) | 0.17 |
| N[C@@H](Cc1c[nH]c2ccccc12)C(=O)N[C@@H](Cc1c[nH]c2ccccc12)C(=O)N[C@@H](Cc1ccc(O)cc1)C(=O)OCc1ccccc1 (H-Trp-Trp-Tyr-OBn) | 0.16 |
| N[C@@H](Cc1c[nH]c2ccccc12)C(=O)N[C@@H](Cc1c[nH]c2ccccc12)C(=O)N[C@@H](Cc1c[nH]c2ccccc12)C(=O)OCc1ccccc1 (H-Trp-Trp-Trp-OBn) | 0.16 |
| CC(C)[C@H](NC(=O)[C@H](Cc1c[nH]c2ccccc12)NC(=O)[C@@H](N)Cc1c[nH]c2ccccc12)C(=O)OCc1ccccc1 (H-Trp-Trp-Val-OBn) | 0.15 |
| CSCC[C@H](NC(=O)[C@H](Cc1c[nH]c2ccccc12)NC(=O)[C@@H](N)Cc1c[nH]c2ccccc12)C(=O)OCc1ccccc1 (H-Trp-Trp-Met-OBn) | 0.16 |
| C[C@H](NC(=O)[C@H](Cc1c[nH]c2ccccc12)NC(=O)[C@@H](N)Cc1c[nH]c2ccccc12)C(=O)OCc1ccccc1 (H-Trp-Trp-Ala-OBn) | 0.16 |
| CC[C@H](C)[C@H](NC(=O)[C@H](Cc1c[nH]c2ccccc12)NC(=O)[C@@H](N)Cc1c[nH]c2ccccc12)C(=O)OCc1ccccc1 (H-Trp-Trp-Ile-OBn) | 0.17 |
| N[C@@H](Cc1c[nH]c2ccccc12)C(=O)N[C@@H](Cc1c[nH]c2ccccc12)C(=O)N1CCC[C@H]1C(=O)OCc1ccccc1 (H-Trp-Trp-Pro-OBn) | 0.15 |
| NC(=O)CC[C@H](NC(=O)[C@H](Cc1c[nH]c2ccccc12)NC(=O)[C@@H](N)Cc1c[nH]c2ccccc12)C(=O)OCc1ccccc1 (H-Trp-Trp-Gln-OBn) | 0.16 |

For the compound N[C@@H](Cc1c[nH]c2ccccc12)C(=O)N[C@@H](Cc1c[nH]c2ccccc12)C(=O)N[C@@H](Cc1ccccc1)C(=O)OCc1ccccc1 (H-Trp-Trp-Phe-OBn) , give its reported Activity.
0.16
